Molecular target: UniProtKB P08684
Sequence (P08684 whole entry): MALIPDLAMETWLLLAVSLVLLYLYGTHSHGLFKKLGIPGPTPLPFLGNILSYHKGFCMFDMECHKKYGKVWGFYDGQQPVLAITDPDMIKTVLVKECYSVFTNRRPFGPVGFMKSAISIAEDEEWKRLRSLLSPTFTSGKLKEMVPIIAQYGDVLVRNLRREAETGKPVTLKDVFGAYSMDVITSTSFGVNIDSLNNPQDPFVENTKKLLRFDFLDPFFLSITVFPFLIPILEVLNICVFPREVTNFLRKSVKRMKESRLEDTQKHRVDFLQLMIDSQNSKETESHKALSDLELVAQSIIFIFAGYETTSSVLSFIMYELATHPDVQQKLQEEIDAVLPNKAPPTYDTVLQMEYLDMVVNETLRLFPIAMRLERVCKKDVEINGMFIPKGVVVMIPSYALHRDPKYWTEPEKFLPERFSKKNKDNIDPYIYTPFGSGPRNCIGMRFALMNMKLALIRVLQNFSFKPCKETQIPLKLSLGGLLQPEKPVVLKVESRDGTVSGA
Assay: in vitro
Conditions: probe testosterone
Description: Inhibition of CYP3A4 (unknown origin) assessed as oxidation of testosterone at 10 uM
inhibition at 10 µM of 20% or higher: class 1. Under 20%: class 0.

Completed entries (count: 2):
O=C(O)CC[C@H]1CN(S(=O)(=O)c2cccc(C(F)(F)F)c2)c2cc(-c3cc(F)cc(F)c3)ccc2O1 = class 1
O=C(O)CC[C@H]1CN(S(=O)(=O)c2cccc(C(F)(F)F)c2)c2cc(/C=C/c3c(Cl)cccc3C(F)(F)F)ccc2O1 = class 0

Does inhibition at 10 µM meet or surpass 20% for CC(C)(C[C@H]1CN(S(=O)(=O)c2cccc(C(F)(F)F)c2)c2cc(-c3cc(F)cc(OC(F)F)c3)ccc2O1)C(=O)O [CINTIRORGON] ?
class 0

Kindly determine if inhibition at 10 µM recorded for CC(C)(C[C@H]1CN(S(=O)(=O)c2cccc(C(F)(F)F)c2)c2cc(-c3cc(F)ccc3F)ccc2O1)C(=O)O is above or exactly 20%.
class 1

Check if inhibition at 10 µM >= 20% (inclusive). Item: C/C(=C\c1ccc2c(c1)N(S(=O)(=O)c1cccc(C(F)(F)F)c1)C[C@H](CCC(=O)O)O2)c1ccccc1Cl
class 0

Could you please find out whether C/C(=C\c1ccc2c(c1)N(S(=O)(=O)c1cccc(C(F)(F)F)c1)C[C@H](CCC(=O)O)O2)c1c(Cl)cccc1Cl has inhibition at 10 µM that meets 20% or exceeds it?
class 0

---

Experiment: in vivo
Conditions: Sprague-Dawley, rat, po, at 30 to 300 mg/kg
assayReadout: bioavailability

Quickly give me recorded bioavailability for CC(C)(C[C@H]1CN(S(=O)(=O)c2cccc(C(F)(F)F)c2)c2cc(-c3cc(F)cc(OC(F)F)c3)ccc2O1)C(=O)O
≥ 100%

---

Experiment: in vitro
Settings: human, hepatocytes
assayReadout: hepatocyte CLint
Answer with the value and then the unit.

Example cases with answers are listed next.
O=C(O)CC[C@H]1CN(S(=O)(=O)c2cccc(C(F)(F)F)c2)c2cc(-c3cc(F)ccc3F)ccc2O1 = 31 µL/min/1e6 cells
O=C(O)CC[C@H]1CN(S(=O)(=O)c2cccc(C(F)(F)F)c2)c2cc(-c3cccc(OC(F)F)c3)ccc2O1 = 36 µL/min/1e6 cells
C/C(=C\c1ccc2c(c1)N(S(=O)(=O)c1ccc(F)c(C3CC3)c1)C[C@H](CCC(=O)O)O2)c1c(F)cccc1Cl = 11 µL/min/1e6 cells
O=C(O)CC[C@H]1CN(S(=O)(=O)c2cccc(C(F)(F)F)c2)c2cc(/C=C/c3c(F)cccc3Cl)ccc2O1 = 26 µL/min/1e6 cells
C/C(=C\c1ccc2c(c1)N(S(=O)(=O)c1ccc(F)c(C(F)(F)F)c1)C[C@H](CCC(=O)O)O2)c1c(F)cccc1Cl = 24 µL/min/1e6 cells

Quote hepatocyte CLint reported for O=C(O)CC[C@H]1CN(S(=O)(=O)c2cccc(C(F)(F)F)c2)c2cc(-c3ccccc3Cl)ccc2O1 please.
32 µL/min/1e6 cells

Fill in hepatocyte CLint for record O=C(O)[C@H](O)CC[C@H]1CN(S(=O)(=O)c2cccc(C(F)(F)F)c2)c2cc(-c3cc(F)ccc3F)ccc2O1
13 µL/min/1e6 cells

Quick one: give measured hepatocyte CLint for C/C(=C\c1ccc2c(c1)N(S(=O)(=O)c1cccc(C(F)(F)F)c1)C[C@H](CCC(=O)O)O2)c1ccccc1C(F)(F)F
23 µL/min/1e6 cells

# return recorded hepatocyte CLint for input COc1ccccc1/C(C)=C/c1ccc2c(c1)N(S(=O)(=O)c1cccc(C(F)(F)F)c1)C[C@H](CCC(=O)O)O2
33 µL/min/1e6 cells

Indicate the recorded hepatocyte CLint value for this compound: C/C(=C\c1ccc2c(c1)N(S(=O)(=O)c1cccc(OC(F)F)c1)C[C@H](CCC(=O)O)O2)c1c(F)cccc1Cl
9.4 µL/min/1e6 cells

---

Target: Nuclear receptor ROR-gamma (Homo sapiens)
Sequence (P51449 whole entry): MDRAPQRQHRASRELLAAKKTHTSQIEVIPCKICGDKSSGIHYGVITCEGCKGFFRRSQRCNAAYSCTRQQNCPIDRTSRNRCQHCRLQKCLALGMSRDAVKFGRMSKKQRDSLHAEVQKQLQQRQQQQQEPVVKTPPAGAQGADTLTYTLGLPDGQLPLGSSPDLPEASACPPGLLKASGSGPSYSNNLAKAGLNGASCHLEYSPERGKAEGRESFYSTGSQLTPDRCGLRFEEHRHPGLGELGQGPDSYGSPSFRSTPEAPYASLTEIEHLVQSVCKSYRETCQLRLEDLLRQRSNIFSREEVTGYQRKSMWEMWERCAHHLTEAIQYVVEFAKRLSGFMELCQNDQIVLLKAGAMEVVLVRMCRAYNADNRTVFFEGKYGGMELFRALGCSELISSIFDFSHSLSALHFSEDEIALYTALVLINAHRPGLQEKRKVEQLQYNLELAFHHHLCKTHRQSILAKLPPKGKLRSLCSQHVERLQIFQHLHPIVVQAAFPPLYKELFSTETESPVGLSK
Each entry below carries its reported EC50.
Kindly answer with a numeric value in µM, unit omitted.

# return EC50 of C/C(=C\c1ccc2c(c1)N(S(=O)(=O)c1cccc(C(F)(F)F)c1)C[C@H](CCC(=O)O)O2)c1ccccc1C(F)(F)F (system: Nuclear receptor ROR-gamma (Homo sapiens))
0.29

State measured EC50 of the compound O=C(O)CC[C@H]1CN(S(=O)(=O)c2cccc(C(F)(F)F)c2)c2cc(-c3ccccc3Cl)ccc2O1 with Nuclear receptor ROR-gamma (Homo sapiens).
0.414

Fetch value of EC50 on Nuclear receptor ROR-gamma (Homo sapiens) for O=C(O)CC[C@H]1CN(S(=O)(=O)c2cccc(C(F)(F)F)c2)c2cc(/C=C/c3c(F)cccc3Cl)ccc2O1 .
0.617

Param request: EC50 | system Nuclear receptor ROR-gamma (Homo sapiens) | item O=C(O)CC[C@H]1CN(S(=O)(=O)c2cccc(C(F)(F)F)c2)c2cc(-c3cc(F)ccc3Cl)ccc2O1
0.124

Enter measured EC50, system Nuclear receptor ROR-gamma (Homo sapiens), for the compound shown: O=C(O)[C@@H](O)CC[C@H]1CN(S(=O)(=O)c2cccc(C(F)(F)F)c2)c2cc(-c3cc(F)ccc3F)ccc2O1
0.501

// output EC50; input C/C(=C\c1ccc2c(c1)N(S(=O)(=O)c1ccc(F)c(C(F)(F)F)c1)C[C@H](CCC(=O)O)O2)c1c(F)cccc1Cl ; system Nuclear receptor ROR-gamma (Homo sapiens)
0.411

Provide the reported EC50 (system: Nuclear receptor ROR-gamma (Homo sapiens)) for C/C(=C\c1ccc2c(c1)N(S(=O)(=O)c1cccc(OC(F)F)c1)C[C@H](CCC(=O)O)O2)c1c(F)cccc1Cl
0.28

// fetch EC50; item: CCOc1nn2c(c1S(=O)(=O)N1C[C@H](CCC(=O)O)Oc3ccc(/C=C(\C)c4c(F)cccc4Cl)cc31)CCCC2 ; system: Nuclear receptor ROR-gamma (Homo sapiens)
0.199

Provide EC50, tested on Nuclear receptor ROR-gamma (Homo sapiens), for O=C(O)C1(C[C@H]2CN(S(=O)(=O)c3cccc(C(F)(F)F)c3)c3cc(-c4cc(F)cc(OC(F)F)c4)ccc3O2)CCOCC1 .
0.058

---

Measured solubility, listed per entry.
Test: physchem
Settings: PBS buffer, pH 7.4
Description: Solubility of the compound in pH 7.4 PBS buffer
Numbers only; they are read as µM.

Write down solubility measured for item C/C(=C\c1ccc2c(c1)N(S(=O)(=O)c1cccc(C(F)(F)F)c1)C[C@H](CCC(=O)O)O2)c1ccccc1
267

Dear colleague, please send me the reported solubility for O=C(O)C1(C[C@H]2CN(S(=O)(=O)c3cccc(C(F)(F)F)c3)c3cc(-c4cc(F)cc(OC(F)F)c4)ccc3O2)CCOCC1 when you can.
90

Could you please provide reported solubility for O=C(O)CC[C@H]1CN(S(=O)(=O)c2cccc(C(F)(F)F)c2)c2cc(/C=C/c3c(Cl)cccc3C(F)(F)F)ccc2O1 ? Thanks!
15

Please report the measured solubility for O=C(O)C1(C[C@H]2CN(S(=O)(=O)c3cccc(C(F)(F)F)c3)c3cc(-c4cc(F)cc(OC(F)F)c4)ccc3O2)COC1
262

Give the value of solubility reported for the following: C/C(=C\c1ccc2c(c1)N(S(=O)(=O)c1cccc(C(F)(F)F)c1)C[C@H](CCC(=O)O)O2)c1c(Cl)cccc1Cl
309

Please report the measured solubility for O=C(O)CC[C@H]1CN(S(=O)(=O)c2cccc(C(F)(F)F)c2)c2cc(/C=C/c3c(F)cccc3Cl)ccc2O1
273

Output measured solubility for this item: O=C(O)CC[C@H]1CN(S(=O)(=O)c2cccc(C(F)(F)F)c2)c2cc(-c3ccccc3Cl)ccc2O1
243

Fill in reported solubility for this entry: O=C(O)CC[C@H]1CN(S(=O)(=O)c2cccc(C(F)(F)F)c2)c2cc(-c3cccc(OC(F)F)c3)ccc2O1
287

// fetch solubility given entry O=C(O)C1(C[C@H]2CN(S(=O)(=O)c3cccc(C(F)(F)F)c3)c3cc(-c4cc(F)ccc4F)ccc3O2)CCOCC1
43

Recall and state the measured solubility for COc1ccccc1/C(C)=C/c1ccc2c(c1)N(S(=O)(=O)c1cccc(C(F)(F)F)c1)C[C@H](CCC(=O)O)O2 .
183
